system_name: Alpha-1
experiment: Receptor binding test RB2, [3H] WB-4104 ligand, Phentolamine specific binding agent
Description: As indication of the psychotropic activity and specificity of a compound, state of the art in vitro central nervous system receptor binding (RB) methodology can be employed. […] Inhibition of radiolabeled ligand binding at such sites is considered a measure of the test compound's ability to affect corresponding central nervous system function in vivo. Some of the more common binding tests employed are listed below in Table 1.
Some compounds, each annotated with its measured IC50.
Field format: number, assumed nM, no unit text.

CCCCCCCCCC(=O)OC1CCC2(CC(=O)N(CCCCN3CCN(c4nsc5ccccc45)CC3)C(=O)C2)C1 (stereo not shown) [Reference # 12] | 7.22
O=C1CC2(CCC(O)C2)CC(=O)N1CCCCN1CCN(c2n[s+]([O-])c3ccccc23)CC1 (stereo not shown) [Reference # 3] | 372

// next item, IC50 requested
Data request: Recorded IC50 of O=C1CN(C2=NS(=O)(=O)c3ccccc32)CCN1 [Reference # 17] , please.
Data returned: 13100

----------
system_name: Dopamine/Spiperone/neuroleptic receptor site
experiment: Receptor binding test RB1, [3H] Spiperone ligand, D(+)Butaclamol specific binding agent
Some molecules, each annotated with its measured IC50.

// worked examples, IC50 included
CC(C)(C)OC(=O)N1CCN(C2=NS(=O)(=O)c3ccccc32)CC1 [Reference # 18] | > 1000 nM
O=C1CC2(CCC(O)C2)CC(=O)N1CCCCN1CCN(c2n[s+]([O-])c3ccccc23)CC1 (stereo not shown) [Reference # 3] | > 100000 nM
O=C1CC2(CCCC2)CC(=O)N1CCCCN1CCN(C2=NS(=O)(=O)c3ccccc32)CC1 [Reference # 1] | > 1000 nM

// next item, IC50 requested
Data request: Recorded IC50 of c1ccc2c(N3CCNCC3)nsc2c1 [Reference # 14, 4-(1,2-benzisothiazol-3-yl)1H-piperazine] , please.
Data returned: > 1000 nM
